biological target: UniProt:P01112; experiment: In vitro for inhibition of nucleotide exchange process of oncogenic Ras
assay-endpoint: IC50 (µM)
API: value field is a number in µM; no unit string.

Query string: State its IC50 on UniProt:P01112: COc1ccc2nc3c(c(C)nn3[C@@H]3O[C@H](COC(=O)c4ccccc4)[C@@H](OC(=O)c4ccccc4)[C@H]3OC(=O)c3ccccc3)c(Cl)c2c1
Result string: 10

* * *

target: UniProtKB P01112; assay: Inhibition of nucleotide exchange process of oncogenic Ras in vitro
assay-endpoint: IC50
A bare number is not enough; add the unit after it.

Example compounds with recorded IC50:
COc1ccc2nc3c(c(C)nn3[C@H]3CN(S(=O)(=O)c4ccccc4)C[C@@H](CO[Si](C)(C)C(C)(C)C)O3)c(Cl)c2c1 | 14 µM
COc1ccc2nc3c(c(C)nn3[C@H]3CN(S(=O)(=O)c4ccc([N+](=O)[O-])cc4)C[C@@H](C/C=C/C(=O)c4ccccc4)O3)c(Cl)c2c1 | 7 µM

Moving on to another compound below.
Query string: What value of IC50 has been recorded for this entry: COc1ccc2nc3c(c(C)nn3[C@H]3CN(Sc4ccccc4[N+](=O)[O-])C[C@@H](CO[Si](C)(C)C(C)(C)C)O3)c(Cl)c2c1
Result string: 1 µM

* * *

# maps each entry to its IC50
target: GTPase HRas (Homo sapiens); test: Inhibition of nucleotide exchange process of oncogenic Ras in vitro
Sequence (P01112 whole entry, looked up): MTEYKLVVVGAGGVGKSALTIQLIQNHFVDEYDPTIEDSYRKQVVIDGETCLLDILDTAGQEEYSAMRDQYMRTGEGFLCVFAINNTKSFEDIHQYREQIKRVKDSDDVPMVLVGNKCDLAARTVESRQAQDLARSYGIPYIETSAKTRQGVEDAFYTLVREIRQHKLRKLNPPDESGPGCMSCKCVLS
API: value field is a number in µM; no unit string.

Example molecules with recorded IC50:
COc1ccc2nc3c(c(C)nn3[C@H]3CN(Sc4ccc([N+](=O)[O-])cc4)C[C@@H](CO)O3)c(Cl)c2c1 | 6.7
COc1ccc2nc3c(c(C)nn3[C@H]3C=C[C@@H](O/C=C/C(=O)c4ccccc4)O3)c(Cl)c2c1 | 35
CCOC(=O)/C=C/C[C@@H]1CN(Sc2ccccc2[N+](=O)[O-])C[C@H](n2nc(C)c3c(Cl)c4cc(OC)ccc4nc32)O1 | 16

Query string: State its IC50 on GTPase HRas (Homo sapiens): COc1ccc2nc3c(c(C)nn3[C@H]3CN(Sc4ccc([N+](=O)[O-])cc4)C[C@@H](C/C=C/C(C)=O)O3)c(Cl)c2c1
Result string: 3
